- method notes: LC/MS of serum sample: time from centrifugation to isolation (Table K)
- Assay type: physicochemical, human
- test parameters: serum sample, LC/MS; time from centrifugation to isolation; detection intensity changed by 30% or more vs 30 minutes
measure: Time when compound is affected

As a guide, the following entries are already answered.
NC(=O)NC1NC(=O)NC1=O (stereo not shown) [Allantoin]: After 6 hours
N[C@@H](CS)C(=O)O [Cysteine]: After 6 hours
OC[C@H]1O[C@@H](n2cnc3c(O)ncnc32)[C@H](O)[C@@H]1O [Inosine]: After 1 hour hours
O=c1[nH]c(=O)c2[nH]cnc2[nH]1 [Xanthine]: After 6 hours
O=c1[nH]cnc2nc[nH]c12 [Hypoxanthine]: After 6 hours

Please look at the following compound next.
Return the recorded Time when compound is affected value; entry: NCCc1c[nH]c2ccc(O)cc12 [Serotonin]
After 1 hour hours

* * *

- method notes: GC/MS of serum sample: time from blood collection to centrifugation (Table G)
- Type: physicochemical, human
- test parameters: detection intensity, blood collection to centrifugation, after 8 hours vs 15 minutes
measure: Increase or decrease

As a guide, the following entries are already answered.
OC[C@@H](O)[C@@H](O)[C@@H](O)CO [Ribitol]: Increase
O[C@@H]1[C@@H](O)[C@@H]2OC[C@@H](O2)[C@H]1O [1,6-Anhydroglucose]: Decrease
OC[C@@H](O)[C@@H](O)[C@H](O)[C@@H](O)CO [Sorbitol]: Increase
OC[C@@H](O)[C@H](O)[C@@H](O)CO [Xylitol]: Decrease

Return the recorded Increase or decrease value; entry: NCCC(=O)O [3-Aminopropionic acid (β-alanine), 3-Aminopropionic acid]
Increase

Return the recorded Increase or decrease value; entry: O[C@H]1[C@H](O)[C@@H](O)[C@H](O)[C@@H](O)[C@H]1O [Inositol]
Increase

Return the recorded Increase or decrease value; entry: O=C(CO)[C@@H](O)[C@H](O)CO [Xylulose]
Increase

Return the recorded Increase or decrease value; entry: O=C(O)[C@@H](O)[C@H](O)CO [Threonic acid]
Decrease

Return the recorded Increase or decrease value; entry: O=C[C@H](O)[C@@H](O)[C@H](O)CO [Xylose]
Decrease

Return the recorded Increase or decrease value; entry: OC[C@H]1O[C@H](O[C@H]2O[C@H](CO)[C@@H](O)[C@H](O)[C@H]2O)[C@H](O)[C@@H](O)[C@@H]1O [Trehalose]
Increase

Return the recorded Increase or decrease value; entry: O=C1O[C@H](CO)[C@@H](O)[C@H]1O [Ribonic acid lactone]
Decrease

Return the recorded Increase or decrease value; entry: OC[C@@H](O)[C@@H](O)CO [Meso-erythritol]
Decrease

Return the recorded Increase or decrease value; entry: O=C(CO)[C@H](O)[C@H](O)CO [Ribulose]
Increase

* * *

- method notes: GC/MS of serum sample: number of times of freezing and thawing (Table I)
- Assay type: physicochemical, human
- Set-up: key: detection intensity relative to 2 freeze-thaw cycles = 1
- test parameters: detection intensity relative to 1 at 2 times; serum, GC/MS; freezing and thawing 10 times
measure: Rate of increase or decrease

[a] O=C(O)CCCCC(=O)O [Adipic acid]
[b] O=C(O)C(=O)CO [3-Hydroxypyruvic acid]
[c] CC(CN)C(=O)O (stereo not shown) [3-Aminoisobutyric acid]
Write the entries in order, lowest recorded Rate of increase or decrease first. List the labels according to the requested ordering.
c, a, b
(c: 1.47, a: 2.14, b: 4.59)

Where these numbers come from: patent US20220146526A1
